Biological target: recombinant mouse E-Cadherin Fc Chimera (Mus musculus)
Construct: purchased R&D Systems
Assay: Biacore SPR equilibrium binding analysis (affinity capture)
Details: peptide dissolved in 10%v/v DMSO/H2O; equilibrium analysis using affinity capture
Protocol: Biacore SPR analysis was used to measure the interaction between peptides and recombinant mouse E-Cadherin Fc Chimera (R&D Systems). Analytes were passed over an HTE chip with surface bound His-tagged Recombinant Mouse E-Cadherin Fc Chimera (R&D Systems). The kinetics of interaction, i.e. the rates of complex formation (ka) and dissociation (kd), were determined and Integrin α4β7 protein was used as a control. […] Equilibrium analysis runs were performed three times and an average KD was calculated. […]
measuredQuantity: pKd
When answering, recall that pKd equals minus log10 of the concentration in mol/L, and write that number alone.

Endpoint output: pKd of H-SWELYYPLRANL-NH2 [Epep, H-SWELYYPLRANL-NH2] . Value?
5.94
